The reported measurements were obtained from PubChem BioAssay (NCI).

# Test system: SF-295 CNS
# Protocol Description: NCI-60 one-dose screen, 48 h (100 = growth as untreated, 0 = no growth, -100 = all killed)
# Experimental Conditions: 10 µM unless noted
Compounds without any hit were thinned out: in the full panel of roughly 83,000, 20% have a hit.
Label T for high-side growth (at or above 50%) and F for low-side growth (below it).

# Compound, Cat
records = [
    ("O=C(N/N=C/c1cc(Cl)ccc1O)C(=O)N/N=C/c1cc(Cl)ccc1O", "T"),
    ("COc1ccc2cnc(N)c(C#Cc3cc(C(=O)Nc4ccc(CN5CCN(C)CC5)c(C(F)(F)F)c4)cnc3C)c2c1", "T"),
    ("CC(=O)N1N=C(c2ccc(Cl)cc2)CC1c1cn(-c2ccccc2)nc1-c1ccc([N+](=O)[O-])cc1 (stereo not given)", "T"),
    ("CC(=O)OC1/C=C\\CC/C=C\\C1 (stereo not given)", "T"),
    ("COc1ccc(NC(=O)/C=C(C)/C=C/C=C(C)/C=C/C2=C(C)CCCC2(C)C)cc1", "T"),
    ("COc1cccc(NC(=O)NCCNc2nccc(-c3c(-c4ccc(F)cc4)nc4sccn34)n2)c1", "T"),
    ("CCCCCCCCCCCCCCCCNC(=S)N/N=C/c1ccc(OC)cc1", "T"),
    ("CCc1c(C)c2ccc(OCC(=O)N=Nc3c(O)[nH]c4ccccc34)c(C)c2oc1=O", "F"),
    ("O=C(NC(=S)NNC(=S)NNc1ccccc1)c1ccccc1", "F"),
    ("CCC(C)C1NC(=O)C(CCCCN)NC(=O)C(CCCCN)NC(=O)C(CC(C)C)NC(=O)C(CCCCN)NC(=O)C(C(C)CC)NC(=O)C(C(C)C)NC(=O)C(C(C)CC)NC(=O)C(CCCCN)NC(=O)C(CCCCN)NC(=O)C(C)NC(=O)C(CCCCN)NC(=O)C(CC(C)C)NC1=O (stereo not given)", "F"),
]
